- System: HT29 colon
- ASSAY REMARKS: NCI tumour cell line growth inhibition, 48 h; in the data active = GI50 below about 0.43 µM; inactive = the rest
Allowed answers: T = active, F = inactive

For orientation, consider the following solved cases.
MOLECULE: COc1cc(/C=C/c2cc(/C=C/c3ccc(O)c(OC)c3)n(C(=O)c3ccc(Cl)cc3)n2)ccc1O
TESTED ON: HT29 colon
LABEL VALUE: F

MOLECULE: Cc1onc(-c2ccccc2)c1C(=O)N/N=C/c1cc(Cl)cc(Cl)c1O
TESTED ON: HT29 colon
LABEL VALUE: F

MOLECULE: O=C1Nc2c(ccc(Cl)c2Cl)/C1=C/c1cc(Br)c(O)c(Br)c1
TESTED ON: HT29 colon
LABEL VALUE: F

MOLECULE: Clc1c(Cl)[n+](Cc2ccc3ccccc3c2)cn1Cc1ccc2ccccc2c1
TESTED ON: HT29 colon
LABEL VALUE: F

MOLECULE: CC(=O)O[C@@H]1C2CCC3C(CC[C@@]4(C)C3CC[C@@H]4C(C)N(C)C)[C@@]2(C)CC[C@@H]1NC(=O)C=C(C)C (stereo partly specified)
TESTED ON: HT29 colon
LABEL VALUE: F

MOLECULE: Fc1ccc(-c2c(-c3ccncc3)nc3n2CCS3)cc1
TESTED ON: HT29 colon
LABEL VALUE: F

[Q] Record lookup: outcome of this test for `Cc1cc2c(C(=O)NC[C@H](C)c3ccccc3)c(O)c(O)cc2c(O)c1-c1c(C)cc2c(C(=O)NC[C@H](C)c3ccccc3)c(O)c(O)cc2c1O` ?
[A] T

[Q] Record lookup: outcome of this test for `O=C1N[C@@H]2[C@@H](O)[C@@H](O)[C@H](O)C[C@H]2c2cc3c(c(O)c21)OCCO3` ?
[A] T

[Q] Record lookup: outcome of this test for COc1cc2c(cc1OC(C)C)[C@H](c1ccc(Cl)cc1)N(c1ccc(N(C)CC3CCC(N4CCN(C)C(=O)C4)CC3)cc1)C(=O)C2 (stereo partly specified) ?
[A] F

[Q] Record lookup: outcome of this test for `Oc1c(Cl)cc(Cl)c(Cl)c1CNCCNCc1c(O)c(Cl)cc(Cl)c1Cl` ?
[A] F

[Q] Record lookup: outcome of this test for `CC(C)C[C@H](NC(=O)CNC(=O)c1cc(Cl)ccc1Cl)B(O)O` ?
[A] T

###

- System: OVCAR-4 ovarian
- ASSAY REMARKS: NCI tumour cell line growth inhibition, 48 h
Listing of recorded GI50 by entry.

[Q] Look up GI50 for this compound: `NS(=O)(=O)OC[C@H]1C[C@@H](Nc2ccnc3cc(-c4cccc(SC(F)(F)F)c4)nn23)[C@H](O)[C@@H]1O`
[A] 0.0274 µM

[Q] Look up GI50 for this compound: CC(C)(C)C(=O)OCOP(=O)(NCc1ccccc1)C1CCCN(O)C1=O (stereo unspecified)
[A] 2.1 µM

[Q] Look up GI50 for this compound: `Fc1ccc(-c2c(-c3ccncc3)nc3n2CCS3)cc1`
[A] > 25 µM

[Q] Look up GI50 for this compound: `O=C(NCCCCN1CCOCC1)c1cc2ccccc2o1`
[A] > 100 µM

[Q] Look up GI50 for this compound: `COc1ccc2ncn(-c3cc(O[C@H](C)c4ccccc4C(F)(F)F)c(C(N)=O)s3)c2c1`
[A] 3.49 µM

[Q] Look up GI50 for this compound: CC1Cc2c(Cl)ncnc2N(C)c2ccc(Cl)cc21 (stereo unspecified)
[A] 0.422 µM

###

- System: NCI-H23 lung
- ASSAY REMARKS: NCI tumour cell line growth inhibition, 48 h
MEASURED QUANTITY: TGI (µM)
Please give a number only; it is taken to be in µM.

COMPOUND: COc1c/c(=C2\C=c3ccccc3=N2)[nH]/c1=C\c1[nH]c(C)cc1C
MEASURED QUANTITY: TGI
UNIT SPEC: µM
QUANTITATIVE READOUT: 7.08

COMPOUND: COc1ccccc1Nc1cc(O)c2c(=O)cc(-c3ccccc3)oc2c1
MEASURED QUANTITY: TGI
UNIT SPEC: µM
QUANTITATIVE READOUT: 52.6

COMPOUND: C=CN(C(=O)N1CCN(c2cc3c(cc2F)c(=O)c(C(=O)O)cn3C2CC2)CC1)c1nc(-c2ccc(OC)cc2)cs1
MEASURED QUANTITY: TGI
UNIT SPEC: µM
QUANTITATIVE READOUT: 14.9

# input for lookup
[Q] Requested read-out TGI, target or system NCI-H23 lung, entry Cc1ccc([N+](=O)[O-])cc1S(=O)(=O)Nc1ccc(C2=NN(S(=O)(=O)c3cc([N+](=O)[O-])ccc3C)C(c3ccccc3)C2)cc1 (stereo not given)
[A] 60.5

###

- Tested on: OVCAR-5 ovarian
- ASSAY REMARKS: NCI tumour cell line growth inhibition, 48 h
MEASURED QUANTITY: TGI

Field: example entries. Status: answers known.
COMPOUND: N#CC(c1ccccc1)N(CCCCCCN(C(=O)c1ccccc1)C(C#N)c1ccccc1)C(=O)c1ccccc1 (stereo not drawn)
TGI: > 100 µM
--
COMPOUND: COc1cc2c(cc1OC)OC(c1c(OC)ccc(OC)c1O)CC2 (stereo not drawn)
TGI: > 100 µM

# input for lookup
[Q] Look up TGI for this compound: `C=C[C@@H](C)[C@]1(C(=O)OC)CCCC12OCCO2`
[A] > 100 µM

###

- System: HOP-92 NSCLC
- ASSAY REMARKS: NCI tumour cell line growth inhibition, 48 h
Listing of recorded TGI by entry.

COMPOUND: CN(C)C(C1=C(O)C(c2ccccc2)N(c2ccccc2)C1=O)N1CCOCC1 (stereo unspecified)
RESULT: > 10 µM
//
COMPOUND: CC(=O)c1nc2ccccc2n1C(C)C(=O)c1ccccc1 (stereo unspecified)
RESULT: > 100 µM
//
COMPOUND: O=C(O)c1ccccc1C(=O)NCC1S(=O)(=O)OCCOS1(=O)=O
RESULT: > 100 µM
//
COMPOUND: CCOC(=O)C(C(=O)OCC)=C1SC(=Nc2ccccc2)C(=Nc2ccccc2)N1c1ccccc1
RESULT: > 100 µM

# input for lookup
[Q] Look up TGI for this compound: CCOC(=O)C1(C#N)OC(=O)c2cnccc21 (stereo unspecified)
[A] > 100 µM

###

- Tested on: RXF 393 renal
- ASSAY REMARKS: NCI tumour cell line growth inhibition, 48 h; in the data active = GI50 below about 0.43 µM; inactive = the rest
Allowed answers: T for active, F for inactive

[Q] Record lookup: outcome of this test for `O=C1Nc2c(ccc(Cl)c2Cl)/C1=C/c1cc(Br)c(O)c(Br)c1` ?
[A] F

[Q] Record lookup: outcome of this test for `C=C(c1ccc(OC)c(/C=C/C(=O)c2ccc3c(c2)OCO3)c1)c1cc(OC)c(OC)c(OC)c1` ?
[A] F

[Q] Record lookup: outcome of this test for `NS(=O)(=O)OC[C@H]1C[C@@H](Nc2ccnc3cc(-c4cccc(SC(F)(F)F)c4)nn23)[C@H](O)[C@@H]1O` ?
[A] T

[Q] Record lookup: outcome of this test for CC(=O)O[C@@H]1C2CCC3C(CC[C@@]4(C)C3CC[C@@H]4C(C)N(C)C)[C@@]2(C)CC[C@@H]1NC(=O)C=C(C)C (some centres undefined) ?
[A] F

[Q] Record lookup: outcome of this test for `Cc1onc(-c2ccccc2)c1C(=O)N/N=C/c1cc(Cl)cc(Cl)c1O` ?
[A] F

[Q] Record lookup: outcome of this test for `C[C@@H](Oc1cc(-n2cnc3ccc(OC4CCN(C)CC4)cc32)sc1C(N)=O)c1ccccc1Cl` ?
[A] T

[Q] Record lookup: outcome of this test for `CCCCCCCCCCCCCCCC1=NCC[N+]1(CCO)CCO` ?
[A] F

[Q] Record lookup: outcome of this test for `COc1ccc(Nc2nc3cc(N)cc(N)c3nc2-c2ccccc2)cc1` ?
[A] F

[Q] Record lookup: outcome of this test for `CC[C@H](C)[C@H](NC(=O)[C@H]1CCCCN1C)C(=O)N(C)[C@H](C[C@@H](OC(C)=O)c1cccc(C(=O)N[C@@H](Cc2ccccc2)C[C@H](C)C(=O)OC)n1)C(C)C` ?
[A] T

###

- Test system: HL-60(TB) leukemia
- ASSAY REMARKS: NCI tumour cell line growth inhibition, 48 h
Listing of recorded TGI by entry.
Please give a number only; it is taken to be in µM.

MOLECULE: O=c1oc2ccc(I)cc2c(=O)n1-c1ccc(Br)cc1F
TESTED ON: HL-60(TB) leukemia
MEASURED QUANTITY: TGI
QUANTITATIVE READOUT: 3.74

[Q] Look up TGI for this molecule: `CCOC(=O)c1cc(C(=O)c2ccc(OC)cc2)n2ccc(/C=C/c3cc[n+](CC(=O)c4ccc(OC)cc4)cc3)cc12`
[A] 4.24

[Q] Look up TGI for this molecule: CCOC(OC(C)=O)[C@@H]1C=C[C@H](C)N(c2ccc([N+](=O)[O-])cc2)O1 (some centres undefined)
[A] 4.79

[Q] Look up TGI for this molecule: OC1(C(Sc2cc(C(F)(F)F)cc(C(F)(F)F)c2)Sc2cc(C(F)(F)F)cc(C(F)(F)F)c2)C=CCCC1 (centres undefined)
[A] 3.97

[Q] Look up TGI for this molecule: COc1cc2c(cc1OC)OC(c1c(OC)ccc(OC)c1O)CC2 (centres undefined)
[A] 69.4

[Q] Look up TGI for this molecule: `O=C1NC(=C(Cl)Cl)/C(=N/S(=O)(=O)N2CCCCC2)N1`
[A] 4.52

[Q] Look up TGI for this molecule: NC1N=C(c2ccc(Cl)cc2)C2=C(N1)c1ccccc1CC2 (centres undefined)
[A] 10.6

[Q] Look up TGI for this molecule: `Cc1cc2nc(NCCN)n(Cc3ccc(F)c(Cl)c3)c2cc1C`
[A] 11.7

[Q] Look up TGI for this molecule: `COc1ccc(C(=O)C(CN(C)C)CN(C)C)cc1`
[A] 1.87

[Q] Look up TGI for this molecule: `O=C1/C(=C/c2cccc(Cl)c2)CCCc2ccccc21`
[A] 30.7

[Q] Look up TGI for this molecule: `CCOC(=O)C1=CCCC[C@H]1S(=O)(=O)Nc1ccc(F)cc1Cl`
[A] 47.9

[Q] Look up TGI for this molecule: Cc1c(C)c2ccc(OCC(O)COC(C)C)c(C)c2oc1=O (centres undefined)
[A] 60.3

[Q] Look up TGI for this molecule: `CCc1ccc(Oc2c(-c3ccc(OCc4ccc(Cl)cc4)cc3O)n[nH]c2C(F)(F)F)cc1`
[A] 4.86

[Q] Look up TGI for this molecule: `Nc1nc(/C=C\c2ccc([N+](=O)[O-])s2)nc(N2CCN(c3ccccc3)CC2)n1`
[A] 54.2
